- assay_text: qHTS assay to identify small molecule antagonists of the androgen receptor (AR) signaling pathway - cell viability counter screen (AID 743033; further: nearly all actives have a fitted effect of over 45% in size)
- experimental_setup: AR-bla HEK293 viability, CellTiter-Glo luminescence, 16 h; series mostly up to 58.5 µM
Results filed as inconclusive are left out. Calls of active or inactive are those of the source. The call rests on the fitted dose curve; in most records, active means well fitted cell-killing curve with a large enough effect in the repeat runs; inconclusive means weak or mixed curves; inactive means no such curve, though single readings can be large or run the other way.
Outcome codes: active, inactive

- compound: "Nc1ccc(Sc2ccc(N)cc2)cc1"
  label: "inactive"
- compound: "NNC(=O)c1ccccc1"
  label: "inactive"
- compound: "Clc1ccc(C(Cl)(Cl)Cl)c(Cl)c1"
  label: "inactive"
- compound: "CC(C)(C)c1cc([N+](=O)[O-])cc(C(C)(C)C)c1O"
  label: "active"
- compound: "Cc1cc(C(F)(C(F)(F)F)C(F)(F)F)ccc1NC(=O)c1cccc(I)c1C(=O)NC(C)(C)CS(C)(=O)=O"
  label: "inactive"
- compound: "Oc1ccc2ccc3cccc4ccc1c2c34"
  label: "inactive"
- compound: "CCOC(=O)CC(=O)CCl"
  label: "inactive"
- compound: "Clc1ccc(C(c2ccccc2Cl)C(Cl)(Cl)Cl)cc1 (centres undefined)"
  label: "inactive"
- compound: "BrCBr"
  label: "inactive"
- compound: "Cc1cc(N=Nc2ccccc2C)ccc1N"
  label: "inactive"
- compound: "CCCSP(=O)(OCC)SCCC"
  label: "inactive"
- compound: "c1ccc2cc3c(cc2c1)-c1cccc2cccc-3c12"
  label: "inactive"
- compound: "O=[N+]([O-])c1ccc2ccc3cccc4ccc1c2c34"
  label: "inactive"
- compound: "O=[N+]([O-])c1cc([N+](=O)[O-])c2ccccc2c1"
  label: "inactive"

###

- assay_text: Caspase-3/7 induction in HepG2 cells by small molecules, qHTS assay (AID 1346978); further: nearly all actives have a fitted effect of over 15% in size
- experimental_setup: HepG2 caspase-3/7 activation, Caspase-Glo luminescence, 17 h; series mostly up to 92.4 µM
- Description: National Center for Advancing Translational Sciences [NCATS] NIH Chemical Genomics Center [NCGC] U.S. Environmental Protection Agency [EPA] National Institutes of Environmental Health Sciences [NIEHS] National Toxicology Program [NTP] Assay overview: Apoptosis is a process of programmed cell death and plays a central role in the development of multicellular organisms. […]
Inconclusive results are not listed. The source made the active and inactive calls. Calls come from the whole dose curve; as a rule, active = well fitted activation curve with a large enough effect in the repeat runs; inconclusive = weak or mixed curves; inactive = flat fitted curve, though single readings scatter.
Outcome codes: active, inactive

- compound: "COc1cc(C=O)cc2c1[C@H](COC(N)=O)[C@]1(OC(C)=O)ON2C[C@H]2[C@@H]1N2C(C)=O"
  label: "active"
- compound: "CCCN(CC)CC1COC2(CCC(C(C)(C)C)CC2)O1 (stereo not given)"
  label: "inactive"
- compound: "C[As+](C)(C)CC(=O)[O-]"
  label: "inactive"
- compound: "CC(C)CC(C)Nc1ccc(Nc2ccccc2)cc1 (stereo not given)"
  label: "inactive"
- compound: "CCCCCCCCCCCCBr"
  label: "inactive"

###

- assay_text: A CellTox Green Cytotoxicity Assay to monitor cytotoxicity in HEK293 cells - 24 hour (AID 1224875); further: nearly all actives have a fitted effect of over 45% in size
- experimental_setup: CellTox Green fluorescence; series mostly up to 76.8 µM
- Source text: National Center for Advancing Translational Sciences [NCATS] NIH Chemical Genomics Center [NCGC] U.S. Environmental Protection Agency [EPA] National Institutes of Environmental Health Sciences [NIEHS] National Toxicology Program [NTP] Cell-based models are critical for drug discovery. […] Viable cells produce no appreciable increases in fluorescence. Therefore, the fluorescence signal produced by the binding interaction with dead cell DNA is proportional to cytotoxicity. […]
Inconclusive results are not listed. Active and inactive are the calls of the source. Calls follow the shape of the dose curve; as a rule, active = well fitted activation curve with a large enough effect in the repeat runs; inconclusive = weak or mixed curves; inactive = flat fitted curve, though single readings scatter.
Outcome codes: active, inactive

- molecule: "[Cd+2].[Cl-].[Cl-]"
  label: "inactive"
- molecule: "[Cl][Sn]([c]1ccccc1)([c]1ccccc1)[c]1ccccc1"
  label: "active"
- molecule: "C=COCCCl"
  label: "inactive"
- molecule: "C[C@@H]1O[C@@H](O[C@H]2C[C@@H](O)[C@]3(CO)[C@H]4[C@H](O)C[C@]5(C)[C@@H](C6=CC(=O)OC6)CC[C@]5(O)[C@@H]4CC[C@]3(O)C2)[C@H](O)[C@H](O)[C@H]1O"
  label: "inactive"
- molecule: "NC(=O)c1ccc(N)nc1"
  label: "inactive"
- molecule: "O=C1C=CC(=O)c2ccccc21"
  label: "active"
- molecule: "O=[N+]([O-])c1c2ccccc2cc2ccccc12"
  label: "active"
- molecule: "CCOP(=O)(NC(C)C)Oc1ccc(SC)c(C)c1 (stereo unspecified)"
  label: "inactive"
- molecule: "CCC(C)(C)C(=O)OC1=C(c2ccc(Cl)cc2Cl)C(=O)OC12CCCCC2"
  label: "inactive"
- molecule: "CCOC(=O)C1(c2ccccc2)CCN(CCC(C#N)(c2ccccc2)c2ccccc2)CC1"
  label: "inactive"
- molecule: "ClCCN1CCOCC1"
  label: "inactive"
- molecule: "CN(C)[C@@H]1C(=O)C(C(N)=O)=C(O)[C@@]2(O)C(=O)C3=C(O)c4c(O)ccc(Cl)c4[C@@](C)(O)[C@H]3C[C@@H]12"
  label: "inactive"
- molecule: "CCOCCOC(C)=O"
  label: "inactive"
- molecule: "CC1(C)CC/C(=C/c2ccc(Cl)cc2)C1(O)Cn1cncn1 (stereo unspecified)"
  label: "inactive"
- molecule: "CC(=O)C(Cl)(Cl)Cl"
  label: "inactive"
- molecule: "FC(Cl)(Cl)Cl"
  label: "inactive"

Ref: PubChem BioAssay (Tox21)
